experiment: NCI Yeast Anticancer Drug Screen. Data for the mec2-1 strain (AID 157); details: S. cerevisiae mec2-1 strain, at 50.0 µM, hits give high values
About 79,000 compounds went through this panel and 15% of them were active in at least one assay; those are over-represented in the sample as a whole.
property_name: growth inhibition (%)
One number for each entry, in %.

>>> df
                                   molecule      property_name  result
0               O=C(O)c1cccc(-c2nn[nH]n2)c1  growth inhibition     0.5
1          [O-]c1c[n+](-c2ccc3c(c2)OCO3)no1  growth inhibition   -3.25
2  c1ccc(C(N=NC(c2ccccc2)c2ccccc2)c2ccccc2)cc1  growth inhibition   -10.3

Please give growth inhibition, item by item, for the list that follows.
1. Nc1ncnc2nc(-c3ccc(C(=O)c4cccc([N+](=O)[O-])c4)cc3)[nH]c12
2. COc1c([N+](=O)[O-])ccc(C(OC(C)=O)OC(C)=O)c1OC(C)=O
3. O=S1(=O)NC2CCC3NS(=O)(=O)NC4CCC(N1)N4S(=O)(=O)N23 (stereo not drawn)
4. C[N+]1(C)C/C(=C\c2ccncc2)C(=O)/C(=C/c2ccncc2)C1
5. Cc1noc(C)c1N=Nc1ccc2nonc2c1N

Out:
1: 6.35; 2: 23.1; 3: -17.4; 4: -2.45; 5: 7.6

Record growth inhibition for all entries; do not skip any.
1. COc1ccc(N2C(=O)CSC2c2c[nH]c3ccccc23)cc1 (stereo not drawn)
2. NC(Cc1ccc(O)cc1)C(=O)NCCS(=O)(=O)O (stereo not drawn)
3. O=C1C2=C(c3ccccc31)C(c1ccc(Cl)cc1)N1C(=O)CCSC1=N2 (stereo not drawn)

Out:
-43.5
9.85
10.6

Please give growth inhibition, item by item, for the list that follows.
1. CC(C(=O)OCc1ccccc1)(c1ccco1)N1C(=O)OC(c2ccccc2)C1c1ccccc1 (stereo not drawn)
2. CCCCCCCCCCCCn1c2nc(=O)[nH]c(=O)c-2nc2ccccc21
3. O=C(O)CSCC(=O)c1ccccc1
4. O=C(O)CCSSCCC(=O)O

Out:
[-3.5, 3.75, -16.4, 6.5]

Look up growth inhibition for the entries below, preserving their order.
1. N#Cc1c(-c2cccn(-c3ccccc3)c2=O)cc(-c2ccccc2)[nH]c1=O
2. Nc1nc(Cl)nc2c1ncn2C1CCC(CO)O1 (stereo not drawn)
3. NC1=Nc2ncccc2C(=O)NN1
4. NC(CCCCC1CCCCC1)C(=O)O (stereo not drawn)
5. O=C1NC(N(Cc2ccccc2)Cc2ccccc2)=NC1(c1ccccc1)c1ccccc1

Out:
1: -5.65; 2: 1.35; 3: 19.5; 4: -29.4; 5: 2.85

###

test: NCI Yeast Anticancer Drug Screen. Data for the mlh1 rad18 strain (AID 175); details: S. cerevisiae mlh1 rad18 strain growth inhibition; at 50.0 µM; hits give high values
The panel holds about 79,000 compounds, 15% with a hit somewhere; the sample as a whole holds those more often.
property_name: growth inhibition (%)
Numbers only, in %.

                                   compound  result
0        OC1C=CC2CCC1C2 (centres undefined)     5.2
1           Cc1[nH]c2ccccc2c(=O)c1-c1ccccc1   -35.8
2  Cc1cccc(C)c1NC(=O)C(=O)C(C#N)c1c(Cl)cccc1Cl (centres undefined)    10.7

Now examine the next entry.
In: Please give measured growth inhibition of the following entry: `COc1ccc(/C=C/C(C)=O)c(OC)c1`
Out: -4.95
